Tested on: Falciformispora senegalensis CBS197.79
Test description: growth relative to untreated control; higher = less inhibition, active = 20 or less
Condition label: 25 µM
# binarize growth: threshold 90% inclusive, high side Y, low side N

{"columns": ["Compound", "Experimental target", "Assigned class"],
 "data": [
  ["C[C@@H](c1nc(-c2ccc(C#N)cc2)cs1)[C@](O)(Cn1cncn1)c1ccc(F)cc1F", "Falciformispora senegalensis CBS197.79", "N"],
  ["Cc1cc(Nc2cn3cc(-c4cnn(C(F)F)c4)ccc3n2)nc(C)n1", "Falciformispora senegalensis CBS197.79", "Y"],
  ["OCCN1CCN(CCCN2c3ccccc3Sc3ccc(C(F)(F)F)cc32)CC1", "Falciformispora senegalensis CBS197.79", "N"],
  ["Cc1c(-c2ccc(-c3ccccc3F)cc2)nc2ccc(F)cc2c1C(=O)O", "Falciformispora senegalensis CBS197.79", "Y"],
  ["Cc1cccc(Nc2nccc(-c3cccc(C#N)c3)n2)c1", "Falciformispora senegalensis CBS197.79", "N"],
  ["CN(C)C(=O)COC(=O)Cc1ccc(OC(=O)c2ccc(NC(=N)N)cc2)cc1", "Falciformispora senegalensis CBS197.79", "Y"],
  ["Cc1cccnc1Nc1cn2cc(-c3ccnc(OC(C)C)n3)ccc2n1", "Falciformispora senegalensis CBS197.79", "Y"],
  ["COc1ccc(Cl)cc1-c1nc(C(=O)NCCN2CCCCC2)c(C(C)C)s1", "Falciformispora senegalensis CBS197.79", "Y"],
  ["CC(=O)Oc1ccccc1C(=O)Nc1ncc([N+](=O)[O-])s1", "Falciformispora senegalensis CBS197.79", "Y"],
  ["CCOC(=O)C1=C(CC)NC2=C(C(=O)CC(C)(C)C2)C1c1ccc(Br)cc1 (stereo unspecified)", "Falciformispora senegalensis CBS197.79", "N"],
  ["CC(C)(C)Nc1ncc2nc(Nc3cccc(C(F)(F)F)c3)n(CC3CCNCC3)c2n1", "Falciformispora senegalensis CBS197.79", "Y"],
  ["COc1ccc(-c2nc3c(NCc4ccccc4)nccc3[nH]2)c(OC)c1", "Falciformispora senegalensis CBS197.79", "N"],
  ["NC(=O)c1nc(F)cnc1O", "Falciformispora senegalensis CBS197.79", "Y"],
  ["Cc1cc2c(cc1Cl)N(C(=O)Nc1cc(F)cc(-c3cncnc3)c1)CC2", "Falciformispora senegalensis CBS197.79", "N"],
  ["CC(C)Nc1cc2c(cn1)nc(Nc1cc(Cl)cc(C#N)c1)n2C1CCNCC1", "Falciformispora senegalensis CBS197.79", "Y"],
  ["O=C(NC(CCO)C1CCCCC1)c1cc2ccc(C(F)(F)F)cc2[nH]1 (stereo unspecified)", "Falciformispora senegalensis CBS197.79", "N"],
  ["C=CC(C)(C)C1=C(O)C(=O)c2ccccc2C1=O", "Falciformispora senegalensis CBS197.79", "Y"],
  ["COc1ccc(-c2cnc3c(-c4ccccc4)c(-c4ccccc4)nn3c2N)cc1OC", "Falciformispora senegalensis CBS197.79", "Y"]
]}

* * *

Tested on: Madurella mycetomatis MM55
Test description: growth relative to untreated control; higher = less inhibition, active = 20 or less
Condition label: 25 µM
Labels: 1 for active, 0 for inactive

{"columns": ["Structure smiles", "Assigned class"],
 "data": [
  ["CCCC(CCC)C(=O)O", 0],
  ["COC(=O)C1=C(C)NC(C)=C(C(=O)OC)C1c1ccccc1[N+](=O)[O-]", 0],
  ["FC(F)(F)c1cc(Cl)cc(Nc2nc3cnc(NC4CCC4)cc3[nH]2)c1", 0],
  ["Cc1cc(C)c2cc(C(=O)N[C@@H](C)c3ccccc3)[nH]c2c1", 1],
  ["C[C@@H](C1CCCCC1)n1c(-c2cc3c(cc2Br)OCO3)nc2cc(C(=O)Nc3ccc(C#N)cc3)ccc21", 0],
  ["CC(=O)[C@@]1(O)CC[C@H]2[C@H]3CCC4=CC(=O)CC[C@@]4(C)[C@H]3CC[C@@]21C", 0],
  ["Cc1cc(C(=O)N2CCOc3c(cc(-c4csc5ccccc45)cc3OCCc3ccccn3)C2)n(C)n1", 1],
  ["CCOc1cc([C@@H](CS(C)(=O)=O)N2C(=O)c3cccc(NC(C)=O)c3C2=O)ccc1OC", 0],
  ["Cc1onc(-c2ccccc2)c1-c1ccc(S(N)(=O)=O)cc1", 0],
  ["Nc1nc(Nc2ccc3c(c2)CC[C@@H](N2CCCC2)CC3)nn1-c1cc2c(nn1)-c1ccccc1CCC2", 1]
]}
